Cited source for all entries: the supplement of paper PMC10567573

B1: CDC14A (parent)
chain: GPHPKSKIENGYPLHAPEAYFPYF

Variants of: B1
TEST NAME: protein stability index of a GFP-peptide fusion (GPS, HEK-293T) (PSI 1-6); higher = more stable;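 also: lentivirally expressed fusions sorted by FACS into six bins by GFP to DsRed ratio, PSI derived from sequencing read proportions per bin multiplied by bin number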
ASSAY SETUP: c terminus: a fixed tail appended
Returns one of true (1) or false (0); true (1) when protein stability index is >= 2.

Is reported protein stability index greater than or equal to 2 here: GPHPKSKIENGAPLHAPEAYFPYF [Y12A]
true (1)

Is reported protein stability index greater than or equal to 2 here: GPHPKSKIENGYPLHAEEAYFPYF [P17E]
true (1)

Is reported protein stability index greater than or equal to 2 here: GPHPKKKIENGYPLHAPEAYFPYF [S6K]
true (1)

Is reported protein stability index greater than or equal to 2 here: GPAPKSKIENGYPLHAPEAYFPYF [H3A]
true (1)

Is reported protein stability index greater than or equal to 2 here: GPHPKSKIENGYPLHAPEAYCPYF [F21C]
true (1)

Is reported protein stability index greater than or equal to 2 here: GPHPKSKIENGYPWHAPEAYFPYF [L14W]
true (1)

Is reported protein stability index greater than or equal to 2 here: GPHPKSKIENGYPLHAPEAYFPNF [Y23N]
true (1)

Is reported protein stability index greater than or equal to 2 here: GPHPKSKIENGYPLHAPEAYAPYF [F21A]
true (1)

Is reported protein stability index greater than or equal to 2 here: GPHPKSKIENGYPLHAPEAYFPTF [Y23T]
true (1)

Is reported protein stability index greater than or equal to 2 here: GIHPKSKIENGYPLHAPEAYFPYF [P2I]
true (1)

Is reported protein stability index greater than or equal to 2 here: GPHPKSKIENGYPLHAPEAYKPYF [F21K]
true (1)

Is reported protein stability index greater than or equal to 2 here: GPHPKSKIENGYPLHAREAYFPYF [P17R]
false (0)

Is reported protein stability index greater than or equal to 2 here: GPHPKSKIENGYPLHAPEAYFCYF [P22C]
true (1)

Is reported protein stability index greater than or equal to 2 here: GPHPKSKIENGYPLHAPQAYFPYF [E18Q]
true (1)

Is reported protein stability index greater than or equal to 2 here: GPHRKSKIENGYPLHAPEAYFPYF [P4R]
true (1)

Is reported protein stability index greater than or equal to 2 here: GPHPWSKIENGYPLHAPEAYFPYF [K5W]
false (0)

Is reported protein stability index greater than or equal to 2 here: GPHPKSKIENFYPLHAPEAYFPYF [G11F]
false (0)

Is reported protein stability index greater than or equal to 2 here: GPHPKSKIGNGYPLHAPEAYFPYF [E9G]
true (1)

Is reported protein stability index greater than or equal to 2 here: GPHWKSKIENGYPLHAPEAYFPYF [P4W]
true (1)

Is reported protein stability index greater than or equal to 2 here: GPHPKSKIENGYPLHAPVAYFPYF [E18V]
false (0)

Is reported protein stability index greater than or equal to 2 here: GPHPKSKIENGYPLHAPEAYVPYF [F21V]
true (1)

Is reported protein stability index greater than or equal to 2 here: GPHPKSKIENGCPLHAPEAYFPYF [Y12C]
true (1)

Is reported protein stability index greater than or equal to 2 here: IPHPKSKIENGYPLHAPEAYFPYF [G1I]
false (0)

Is reported protein stability index greater than or equal to 2 here: GPHPKSKIENGYPLDAPEAYFPYF [H15D]
true (1)

Is reported protein stability index greater than or equal to 2 here: GPHPKSKIENGYPLHAPEAYFTYF [P22T]
false (0)

Is reported protein stability index greater than or equal to 2 here: GPHPKSKIERGYPLHAPEAYFPYF [N10R]
false (0)

Is reported protein stability index greater than or equal to 2 here: GPHPKSKIENGYPLHAPEAYFPEF [Y23E]
true (1)

Is reported protein stability index greater than or equal to 2 here: GPHPKSKIENGYPLHAPEAYRPYF [F21R]
true (1)

Is reported protein stability index greater than or equal to 2 here: GPNPKSKIENGYPLHAPEAYFPYF [H3N]
true (1)

Is reported protein stability index greater than or equal to 2 here: GPHPESKIENGYPLHAPEAYFPYF [K5E]
true (1)

Is reported protein stability index greater than or equal to 2 here: GPHPLSKIENGYPLHAPEAYFPYF [K5L]
true (1)

Is reported protein stability index greater than or equal to 2 here: GPWPKSKIENGYPLHAPEAYFPYF [H3W]
false (0)

Is reported protein stability index greater than or equal to 2 here: GPHPKSKIEAGYPLHAPEAYFPYF [N10A]
true (1)
